molecular target: PD-1/PD-L1 complex (hPD-1, hPD-L1) (Homo sapiens, UniProt Q9NZQ7); test: HTRF assay of PD-1/PD-L1 complex disruption (Cis-Bio kit); details: disruption of PD-1/PD-L1 complex, n = 2
Sequence (Q9NZQ7 19-238 limits assumed, one chain of several): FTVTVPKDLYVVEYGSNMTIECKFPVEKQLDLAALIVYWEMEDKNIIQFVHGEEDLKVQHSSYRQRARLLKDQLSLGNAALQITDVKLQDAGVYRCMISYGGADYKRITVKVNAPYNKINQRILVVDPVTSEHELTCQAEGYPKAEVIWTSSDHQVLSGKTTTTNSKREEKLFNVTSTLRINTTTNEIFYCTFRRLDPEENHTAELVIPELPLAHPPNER
pIC50: −log10 of the molar value.
Quantity Kind: pIC50

>>> recorded_result("COc1cc(-c2cccc(-c3ccc4c(c3)OCCO4)c2Cl)ccc1CN1CCC(C(=O)NC(CO)CO)CC1 [5g]")
"> 9.30"
>>> recorded_result("COc1cc(-c2cccc(-c3ccc4c(c3)OCCO4)c2Cl)ccc1CN1CCC(C(=O)NCCO)C1 (centres unmarked) [2f]")
"> 9.30"
>>> recorded_result("COc1cc(-c2cccc(-c3ccc4c(c3)OCCO4)c2Cl)ccc1CN1CCC(C(=O)NN(C)C)CC1 [5d]")
"> 9.30"
>>> recorded_result("COc1cc(-c2cccc(-c3ccc4c(c3)OCCO4)c2Cl)ccc1CN1CCCC1C(=O)NN(C)C (centres unmarked) [1d]")
"> 9.30"
>>> recorded_result("COc1cc(-c2cccc(-c3ccc4c(c3)OCCO4)c2Cl)ccc1CN1CCCC1C(=O)NCCO (centres unmarked) [1f]")
"> 9.30"
>>> recorded_result("COc1cc(-c2cccc(-c3ccc4c(c3)OCCO4)c2Cl)ccc1CN1CCC(C(=O)NC(CO)(CO)CO)C1 (centres unmarked) [2h]")
"> 9.30"
>>> recorded_result("COc1cc(-c2cccc(-c3ccc4c(c3)OCCO4)c2Cl)ccc1CN1CCCC1C(=O)NC(CO)CO (centres unmarked) [1g]")
"> 9.30"
>>> recorded_result("COc1cc(-c2cccc(-c3ccc4c(c3)OCCO4)c2Cl)ccc1CN1CCCC1C(=O)NO (centres unmarked) [1b]")
"< 6.00"
>>> recorded_result("COc1cc(-c2cccc(-c3ccc4c(c3)OCCO4)c2Cl)ccc1CN1CCCC1C(=O)NCCN (centres unmarked) [1e]")
"> 9.30"
>>> recorded_result("COc1cc(-c2cccc(-c3ccc4c(c3)OCCO4)c2Cl)ccc1CN1CCC(C(=O)O)C1 (centres unmarked) [2a]")
8.96
>>> recorded_result("COc1cc(-c2cccc(-c3ccc4c(c3)OCCO4)c2Cl)ccc1CN1CCC(C(=O)O)CC1 [5a]")
"> 9.30"

The measured values listed here are drawn from paper PMC10788941.
